Molecular target: β-catenin (Homo sapiens)
Sequence (P35222 1-781): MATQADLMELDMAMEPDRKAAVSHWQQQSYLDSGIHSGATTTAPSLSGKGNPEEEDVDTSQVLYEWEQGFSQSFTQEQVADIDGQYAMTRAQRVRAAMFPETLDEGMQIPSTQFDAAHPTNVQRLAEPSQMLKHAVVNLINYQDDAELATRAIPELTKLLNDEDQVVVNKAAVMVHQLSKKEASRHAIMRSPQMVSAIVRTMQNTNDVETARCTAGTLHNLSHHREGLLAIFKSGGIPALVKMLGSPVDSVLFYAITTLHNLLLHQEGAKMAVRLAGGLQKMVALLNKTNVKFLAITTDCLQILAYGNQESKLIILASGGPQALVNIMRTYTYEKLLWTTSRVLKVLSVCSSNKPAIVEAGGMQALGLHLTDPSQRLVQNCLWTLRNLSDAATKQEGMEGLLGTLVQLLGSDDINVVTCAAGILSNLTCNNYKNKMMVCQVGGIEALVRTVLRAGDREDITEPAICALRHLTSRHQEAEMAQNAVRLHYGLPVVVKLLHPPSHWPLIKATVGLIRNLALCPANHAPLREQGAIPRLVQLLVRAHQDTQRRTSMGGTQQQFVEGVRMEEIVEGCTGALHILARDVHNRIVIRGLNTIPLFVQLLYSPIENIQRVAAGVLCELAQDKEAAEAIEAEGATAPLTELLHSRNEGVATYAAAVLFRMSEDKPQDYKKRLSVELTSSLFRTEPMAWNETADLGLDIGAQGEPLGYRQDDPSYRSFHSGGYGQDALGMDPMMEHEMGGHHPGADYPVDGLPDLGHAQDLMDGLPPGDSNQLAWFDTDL
Test: KD50 measurement using competitive fluorescence polarization (FP) with labelled TCF4
Assay type: binding
Details: fluorescence polarization, β-catenin; read-out: β-Cat FP KD
Procedure: Fluorescence polarization (FP) is another method used to analyze protein-ligand interactions. This methodology measures the change in fluorescence light emitted by a labelled compound free vs. conjugated to another compound in solution. Upon binding of the fluorescent molecule to a complex, polarization increases because of limited rotation of the fluorescent tracer. […] Data were analyzed and plotted in Microsoft Excel (Microsoft, Redmond, WA). […]
Where a SMILES comes first, the peptide text is derived from it.
value.type: Kd

CC[C@H](C)[C@H](NC(=O)[C@H](CC(C)C)NC(=O)[C@H](Cc1ccccc1)NC(=O)[C@H](Cc1c[nH]c2ccccc12)NC(=O)[C@@H](N)CCSC)C(=O)N[C@@H](CS)C(=O)N[C@@H](Cc1c[nH]cn1)C(=O)N[C@@H](Cc1c[nH]c2ccccc12)C(=O)NCC(=O)O [compound 145] (H-MWFLICHWG-OH) | 1000 to 10000 nM
CC[C@H](C)[C@H](NC(=O)[C@H](Cc1c[nH]c2ccccc12)NC(=O)[C@@H](N)CCSC)C(=O)N[C@@H](CC(C)C)C(=O)N[C@H](C(=O)N[C@@H](CS)C(=O)NC(C)(Cc1ccccc1)C(=O)N[C@@H](Cc1c[nH]c2ccccc12)C(=O)NCC(=O)O)[C@@H](C)CC (stereo partly drawn) [compound 121] (HELM PEPTIDE1{M.W.I.L.I.C.[CC(Cc1ccccc1)(N[*:1])C(=O)[*:2]].W.G}$$$$V2.0) | < 400 nM

# input for lookup
Supply Kd measured with β-catenin (Homo sapiens) for CC[C@H](C)[C@H](NC(=O)[C@H](CC(C)C)NC(=O)[C@H](Cc1ccccc1)NC(=O)[C@H](Cc1c[nH]c2ccccc12)NC(=O)[C@H](CCSC)NC(C)=O)C(=O)N[C@@H](C)C(=O)N[C@@H](Cc1ccccc1)C(=O)N[C@@H](Cc1c[nH]c2ccccc12)C(=O)NCC(=O)O [compound 274] (Ac-MWFLIAFWG-OH) .
< 400 nM

The measured values listed here are drawn from patent US12441768B2.
